Tested System: T1, human MSLN-FL-his protein (human, UniProt Q13421 296-580)
T1 construct: Made in HEK293E cells, purified on nickel column; also called hMSLN-FL-his; human MSLN full-length protein; not shown: His tag
T1 sequence (Q13421 other isoform, or with tags, fused parts or gaps): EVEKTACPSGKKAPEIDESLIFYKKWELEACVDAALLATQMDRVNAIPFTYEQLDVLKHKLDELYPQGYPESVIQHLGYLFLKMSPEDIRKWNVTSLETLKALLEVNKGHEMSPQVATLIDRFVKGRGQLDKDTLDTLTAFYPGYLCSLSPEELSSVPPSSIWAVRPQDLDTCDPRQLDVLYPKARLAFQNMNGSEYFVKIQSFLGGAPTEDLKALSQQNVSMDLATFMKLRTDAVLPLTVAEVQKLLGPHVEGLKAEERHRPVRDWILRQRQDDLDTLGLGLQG
Test Method Notes: ELISA, coated antigen, antibody 20 nM
Assay Endpoint: OD450
A bare number is all that is needed in reply.

Worked set:
[
  {
    "Binder": "S009-F7.48.1 chimeric antibody (antibody, human IgG1, kappa, V domains shown, Human-murine chimeric antibody, human IgG1/kappa constant regions) VH: QVQLQQPGTELVKPGASVKLSCKASGYTFTSYWMHWVKQRPGQGLEWIGNINPSNGGTNNNENFKSKATLTVDTSSSTAYMQLSSLTSEDSAVYYCVRNGYHGYWYFDVWGTGTTVTVSS VL: DIVMTQSQKFMSTSVGDRVSVTCKASQNVGTNVAWYQQQPGQSPKALIYSASYRYSGVPDRFTGSVSGTDFTLTISNVQSEDLAEYFCQQYNSYPLTFGGGTKLEIKR",
    "OD450": 2.21
  },
  {
    "Binder": "S009-F7.33.24 chimeric antibody (antibody, human IgG1, kappa, V domains shown, Human-murine chimeric antibody, human IgG1/kappa constant regions) VH: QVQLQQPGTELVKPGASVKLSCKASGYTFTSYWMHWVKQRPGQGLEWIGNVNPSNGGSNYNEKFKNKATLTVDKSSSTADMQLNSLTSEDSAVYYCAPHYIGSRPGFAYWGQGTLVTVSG VL: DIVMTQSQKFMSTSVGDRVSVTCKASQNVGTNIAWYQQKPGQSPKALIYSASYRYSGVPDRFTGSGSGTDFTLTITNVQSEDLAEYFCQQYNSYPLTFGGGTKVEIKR",
    "OD450": 2.53
  },
  {
    "Binder": "S009-F7.30.5 chimeric antibody (antibody, human IgG1, kappa, V domains shown, Human-murine chimeric antibody, human IgG1/kappa constant regions) VH: QVQLQQPKTELVKPGASVKLSCKASGYIFTTYWMHWVKQRPGQGLEWIGNVNPSNGGTMYNEKFERRATLTVDKSSSTADMQLSSLTSEDSAVYYCVPHYIGSRPGFAYWGQGTLVTVSG VL: DIVMTQSQKFMSTSVGDRVSVTCKASQNVGTNVAWYQHKPGQSPKALLYSASYRYSGVPDRFTGSGSGTDFTLTITNVQSEDLAEYFCQQYNSYPLTFGGGTKLEIKR",
    "OD450": 2.43
  },
  {
    "Binder": "S009-F7.66.12 chimeric antibody (antibody, human IgG1, kappa, V domains shown, Human-murine chimeric antibody, human IgG1/kappa constant regions) VH: QIPLQQSGPELVKPGASVRISCKASDYAFSSSWMNWVKQRPEKGLEWIGRIFVESGNTHYNDKFNGKATLTADKSSRTAYIQLSSLTSEDSAVYFCTRENIFYHGHSSWFAYWGQGTLVTVSA VL: DIVLTQSPASLVVSLGQRATISCRAGESVDDFGISYVHWYQQKPGQPPKLLIYRAANLESGIPARFSGSGSRTDFTLTINPVETDDVAIYYCQQNNKDPFTFGSGTKLEIKR",
    "OD450": 2.2
  },
  {
    "Binder": "S009-F7.12.13 chimeric antibody (antibody, human IgG1, kappa, V domains shown, Human-murine chimeric antibody, human IgG1/kappa constant regions) VH: EVQLQQSGPELVKPGASVKIPCKASGYTFTDYNMDWVKQSHGKGLEWIGDINPNTDDTIYNQKFNGKATLTVDKSSSTAYMELRSLTSEDTAVYYCSRRLIGTGYFDVWGTGTTVTVSS VL: QIVLTQSPAIMSASPGEKVTLTCSASSSVISTYLCWYRQKPGSSPELWIYSTSNLASGVPARFSGSGSGTSYSLTISSMEAEDAASYFCHQWSNYPYTFGGGTKLGMKR",
    "OD450": 2.19
  }
]

Ask | Fill in OD450 for record S009-F7.21.16 chimeric antibody (antibody, human IgG1, kappa, V domains shown, Human-murine chimeric antibody, human IgG1/kappa constant regions) VH: QVQLQQPGTELVKPGASVKLSCKASGYTFTTFWMHWVKQRPGQGLEWIGGVNPTNGGTNYNEKFRTKATLTVDKSSTTADMQLSSLTSEDSAVYYCAPHYISSRPGFAYWGQGTLVTVSG VL: DIVMTQSQKFMSTSGGDRVSVTCKASQNVGTNVAWYQQKPGQSPKALIYSASYRYSGVPDRFTGSGSGTDFILTISNVQSEDLAEYFCQQYNSYPLTFGGGTKLEIKR
Reply | 2.46

Ask | Fill in OD450 for record S009-F7.61.21 chimeric antibody (antibody, human IgG1, kappa, V domains shown, Human-murine chimeric antibody, human IgG1/kappa constant regions) VH: DVQLQQSGPELVEPGASVRIPCKAAGHTFTDYNVDWVKQSHGQSLEWIGDVNPNTDGAIYNQKFEGKATLTVDTSSSTAYMELRSLTSEDTAVYFCARRRLGQGGFDSWGQGTTLTVSS VL: QVVLTQSPAIMSASPGEKVTLTCGASSSLISKYLYWYQQKPGSSPKLWIYSTSNLASGVPARFSGSGSGTSYSLTISSMEAEDAASYFCHQWSSYPYTFGGGTKVEIKR
Reply | 2.14

Ask | Fill in OD450 for record S009-F7.53.2 chimeric antibody (antibody, human IgG1, kappa, V domains shown, Human-murine chimeric antibody, human IgG1/kappa constant regions) VH: EVQLQQSGPELVKPGASVKIPCKTSGYTFTDYNMDWVKQSHGKSLEWIGDINPNTDGAIYNQKFQNKATLTVDKSSSTAYMELRSLTSEDTAVYYCTRRKLGRKFFDYWGQGTTLTVSS VL: QIVLTQSPAIMSASPGEQVTMTCSASSSVGYMNWYQQKPGSSPRLLIYDTSNLASGVPVHFSGSGSGTSYSLTISRMEAAFAATYYCQQWYVYPYTFGGGTKLEIKR
Reply | 2.2

Ask | Fill in OD450 for record S009-F7.18.10 chimeric antibody (antibody, human IgG1, kappa, V domains shown, Human-murine chimeric antibody, human IgG1/kappa constant regions) VH: QVQLQQSGAELVRPGTSVKVSCKASGYAFTNYLIEWVKQRPGQGLEWIGVINPGSGGTKYNEKFKGKATLTADKSSSTAYMQLSSLTSEDSAVYFCASDYDYDPFAYWGQGTLVTVSA VL: DIVMTQSHKFMSTSVGDRVSITCKASQDVSTAVAWYQRKPGQSPKLLIYWASTRHTGVPDRFTGSGSGTDYTLTISYMQAEDLALYYCQQHYSTPYTFGGGTKLEIKR
Reply | 2.29

Ask | Fill in OD450 for record S009-F7.44.20 chimeric antibody (antibody, human IgG1, kappa, V domains shown, Human-murine chimeric antibody, human IgG1/kappa constant regions) VH: EVQLQQSGPELVKPGASVKIPCKASGYTFTDYNMDWVKQSHGKSLEWIGDINPSTGGTIYNQKFNGKATLTEDKSASTVYMEFRSLTSDDTAVYYCARRRIGTGYFDVWGTGTTVTVSS VL: QIVLTQSPALMSASPGEKVTLTCSASSSVISSYLSWYQQKPGSSPKLLIYRTSNLASGVPARFSGSGSGTSYSLTISSMEAEDAASYFCHQWSSFPYTFGGGTKLEIKR
Reply | 2.21
